# system: Gal(b1-3)[Fuc(a1-4)]GlcNAc(b1-2)Man(a1-3)[Gal(b1-3)[Fuc(a1-4)]GlcNAc(b1-2)Man(a1-6)]Man(b1-4)GlcNAc(b1-4)[Fuc(a1-6)]GlcNAc
# assayName: glycan array binding signal (z-score within array); higher = stronger binding
# conditions: glycan notation: IUPAC condensed, linker removed
About 410 targets per protein were measured; listed, in parts, are those with the strongest signals and a random draw of the rest.
experimentalEndpoint: glycan array binding signal (z-score)

binder="CCL2 (Coprinopsis cinerea), B3GA02 (protein) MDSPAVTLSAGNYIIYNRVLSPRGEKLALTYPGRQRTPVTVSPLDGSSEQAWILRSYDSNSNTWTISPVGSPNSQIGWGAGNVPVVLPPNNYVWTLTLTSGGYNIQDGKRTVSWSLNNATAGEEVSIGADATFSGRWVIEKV" val=-0.19
